# Test system: CD-4+ (A 3.01)
# protocol-description: Antiviral activity in CD-4+ (A 3.01) cell line expressed as IC50
# Format: functional, cell-based
measured-property: IC50 (nM)
Write down the numeric answer in nM and omit the unit.

The reported IC50 of the molecule Cc1cn([C@H]2C[C@H](O)[C@](CO)(N=[N+]=[N-])O2)c(=O)[nH]c1=O was 10

----------
# Tested on: MT4
# protocol-description: Antiviral activity in MT-4 cells expressed as IC50
# Type: functional, cell-based, Homo sapiens
# cond: mt4
measured-property: pIC50
Scale explanation: pIC50 corresponds to minus log10 of a concentration expressed in moles per litre.

The reported pIC50 of the compound Nc1ccn([C@@H]2CS[C@H](CO)O2)c(=O)n1 (stereo in doubt; (-)) was 6.21
